Origin of values: patent US20250368678A1

assay: Pharmacokinetic study in CD-1 mice (plasma and brain); type: in vivo; conditions: male, mouse, plasma, oral, IG 5 mg/kg, 8 h, read-out: Plasma concentration
Endpoint name: concentration at 8 h (ng/mL)

C[C@@]1(O)CC[C@H]2[C@H](CC[C@@H]3[C@@H]2CC[C@]2(C)[C@@H](C(=O)Cn4cnn(-c5cc(F)nc(F)c5)c4=O)CC[C@@H]32)C1; 891

====

experiment: Pharmacokinetic study in CD-1 mice (plasma and brain); format: in vivo; conditions: male, mouse, plasma, oral, IG 5 mg/kg vs IV 1 mg/kg, read-out: F (absolute bioavailability)
Endpoint name: bioavailability (%)

C[C@@]1(O)CC[C@H]2[C@H](CC[C@@H]3[C@@H]2CC[C@]2(C)[C@@H](C(=O)Cn4cnn(-c5cc(F)nc(F)c5)c4=O)CC[C@@H]32)C1; 109
